Measured On: HNE (human neutrophil elastase) (Homo sapiens, UniProt P08246)
Construct: purchased Calbiochem
Sequence (P08246 30-267): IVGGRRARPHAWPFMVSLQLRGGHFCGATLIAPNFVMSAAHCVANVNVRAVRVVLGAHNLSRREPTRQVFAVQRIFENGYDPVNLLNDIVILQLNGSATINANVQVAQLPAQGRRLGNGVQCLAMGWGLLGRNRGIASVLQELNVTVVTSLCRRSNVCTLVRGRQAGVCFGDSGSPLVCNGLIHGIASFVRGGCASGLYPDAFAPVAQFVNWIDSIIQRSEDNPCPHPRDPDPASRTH
Measurement Notes: HNE inhibition assay (fluorogenic substrate cleavage)
Type: biochemical
Settings: mean ± SD of three independent experiments; read-out: IC50 (HNE inhibitory activity)
Measurement Label: IC50 (µM)

Example cases with answers are listed next.
>>> recorded_number("CC(C)(C)C(=O)Oc1ccc(S(=O)(=O)n2nc(C#N)c3cccnc32)cc1 [Compound 3l]")
0.066
>>> recorded_number("CC(C)(C)C(=O)Oc1ccc(S(=O)(=O)n2nc(C3CC3)c(=O)c3ccccc32)cc1 [Compound 9b]")
0.078
>>> recorded_number("Cn1nc(C#N)c2cc(NS(=O)(=O)c3ccc(OC(=O)C(C)(C)C)cc3)ccc21 [Compound 7c]")
0.394
>>> recorded_number("Cc1cccc(C(=O)Nc2nn(S(=O)(=O)c3ccc(OC(=O)C(C)(C)C)cc3)c3ccccc23)c1 [Compound 4]")
0.062
>>> recorded_number("CC(C)(C)C(=O)Oc1ccc(S(=O)(=O)n2cc(-c3ccccc3)c(=O)o2)cc1 [Compound 11]")
0.29

a: CC(C)(C)C(=O)Oc1ccc(S(=O)(=O)n2cc(C#N)c3cccnc32)cc1 [Compound 3i]
b: CCOC(=O)c1nn(C(=O)c2cccc(C)c2)c2ccc(NS(=O)(=O)c3ccc(OC(=O)C(C)(C)C)cc3)cc12 [Compound 7e]
c: CCOC(=O)c1cn(S(=O)(=O)c2ccc(OC(=O)C(C)(C)C)cc2)c2ccc([N+](=O)[O-])cc12 [Compound 3b]
d: CCOC(=O)c1cn(C(=O)c2cccc(C)c2)c2ccc(NS(=O)(=O)c3ccc(OC(=O)C(C)(C)C)cc3)cc12 [Compound 7b]
Q) Hi! Can you put these in order of IC50, lowest number first? // ordering of labels required in reply
A) c, a, b, d

P: CCOC(=O)c1nn(S(=O)(=O)c2ccc(OC(=O)C(C)(C)C)cc2)c2ccc([N+](=O)[O-])cc12 [Compound 3g]
Q: Cc1noc(-c2cn(S(=O)(=O)c3ccc(OC(=O)C(C)(C)C)cc3)c3ncccc23)n1 [Compound 3j]
Q) Between P and Q , which one shows the larger IC50 value? Lab note: record the label of whichever item you select.
A) Q
(Q: 0.043 µM, P: 0.023 µM)
